system_under_test: Endothelin receptor type B (Homo sapiens)
experiment_summary: In vitro for specific binding of [125I]ET1 to GHcell expressed in Endothelin B receptor
fulfilled if IC50 is below 40 nM. not fulfilled if not; exact matches included in not fulfilled.

Sample answers from the record:
Is it true that IC50 reported for Cc1ccc(-c2c(NS(=O)(=O)c3ccc(C(C)(C)C)cc3)ncnc2OCCOc2ncc(Cl)cn2)cc1 is less than 40 nM? fulfilled

Is it true that IC50 reported for CSc1cnc(OCCOc2ncnc(NS(=O)(=O)c3ccc(C(C)(C)C)cc3)c2-c2ccc(C)cc2)nc1 is less than 40 nM? not fulfilled

Is it true that IC50 reported for Cc1ccc(-c2c(NS(=O)(=O)c3ccc(C(C)(C)C)cc3)ncnc2OCCOc2ncc(-c3ccco3)cn2)cc1 is less than 40 nM? fulfilled

Is it true that IC50 reported for COc1cnc(OCCOc2ncnc(NS(=O)(=O)c3ccc(C(C)(C)C)cc3)c2-c2ccc(C)cc2)nc1 is less than 40 nM? not fulfilled

Is it true that IC50 reported for Cc1ccc(-c2c(NS(=O)(=O)c3ccc(C(C)(C)C)cc3)ncnc2OCCOc2ncc(-c3cccs3)cn2)cc1 is less than 40 nM? fulfilled

Query compound follows.
Is it true that IC50 reported for Cc1ccc(-c2c(NS(=O)(=O)c3ccc(C(C)(C)C)cc3)ncnc2OCCOc2ncc(Br)cn2)cc1 is less than 40 nM? fulfilled

----------
system_under_test: Endothelin-1 receptor (Sus scrofa)
Sequence (Q29010 whole entry): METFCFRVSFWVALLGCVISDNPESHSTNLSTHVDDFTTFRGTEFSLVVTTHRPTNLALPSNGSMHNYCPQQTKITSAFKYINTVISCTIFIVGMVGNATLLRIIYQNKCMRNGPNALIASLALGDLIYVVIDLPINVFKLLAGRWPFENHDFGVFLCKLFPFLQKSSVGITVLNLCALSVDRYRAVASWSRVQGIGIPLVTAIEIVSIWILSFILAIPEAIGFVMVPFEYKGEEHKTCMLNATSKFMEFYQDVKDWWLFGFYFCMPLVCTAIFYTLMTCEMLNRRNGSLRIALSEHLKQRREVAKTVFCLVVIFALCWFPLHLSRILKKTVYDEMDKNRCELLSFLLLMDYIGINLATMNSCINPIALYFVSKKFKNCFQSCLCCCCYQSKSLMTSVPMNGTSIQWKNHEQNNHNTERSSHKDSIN
experiment_summary: In vitro inhibition of [125I]ET1 binding to Endothelin A receptor in porcine aortic membrane from endothelial cells
condition_set: in the assay text read “with endothelium removed” for “from endothelial cells”
observation_type: pIC50
pIC50 here is simply -log10 of the concentration when that concentration is written in mol/L.

// solved cases for pIC50 follow
Give pIC50; test system Endothelin-1 receptor (Sus scrofa); molecule COc1ccc(-c2c(NS(=O)(=O)c3ccc(C(C)(C)C)cc3)ncnc2OCCOc2ncc(SC)cn2)cc1OC 11.07

Give pIC50; test system Endothelin-1 receptor (Sus scrofa); molecule COc1cccc(Oc2c(NS(=O)(=O)c3ccc(C(C)(C)C)cc3)ncnc2OCCOc2ccc3ccccc3n2)c1 7.82

Give pIC50; test system Endothelin-1 receptor (Sus scrofa); molecule COc1cccc(Oc2c(NS(=O)(=O)c3ccc(C(C)(C)C)cc3)ncnc2OCCOc2ncc(Cl)cn2)c1 10.23

Others:
Give pIC50; test system Endothelin-1 receptor (Sus scrofa); molecule CSc1cnc(OCCOc2ncnc(NS(=O)(=O)c3ccc(C(C)(C)C)cc3)c2-c2ccco2)nc1 8.54

Give pIC50; test system Endothelin-1 receptor (Sus scrofa); molecule CSc1cnc(OCCOc2ncnc(NS(=O)(=O)c3ccc(C(C)(C)C)cc3)c2-c2ccc3ccccc3c2)nc1 9.54

Give pIC50; test system Endothelin-1 receptor (Sus scrofa); molecule COc1cccc(-c2c(NS(=O)(=O)c3ccc(C(C)(C)C)cc3)ncnc2OCCOc2ncc(SC)cn2)c1 10.55

Give pIC50; test system Endothelin-1 receptor (Sus scrofa); molecule Cc1ccc(-c2c(NS(=O)(=O)c3ccc(C(C)C)cc3)ncnc2OCCOc2ncc(Br)cn2)cc1 9.80

Give pIC50; test system Endothelin-1 receptor (Sus scrofa); molecule COc1cccc(Oc2c(NS(=O)(=O)c3ccc(C(C)(C)C)cc3)ncnc2OCCOc2cccnn2)c1 7.29

----------
system_under_test: Endothelin-1 receptor (Sus scrofa)
experiment_summary: In vitro inhibition of [125I]ET1 binding to Endothelin A receptor in porcine aortic membrane from endothelial cells
condition_set: in the assay text read “with endothelium removed” for “from endothelial cells”
Fulfilled if IC50 is below 0.9 nM. Not fulfilled if not; exact matches included in Not fulfilled.

Is it true that IC50 reported for COc1cccc(Oc2c(NS(=O)(=O)c3ccc(C(C)(C)C)cc3)ncnc2OCCOc2nccc(C)n2)c1 is less than 0.9 nM? Not fulfilled

Others:
Is it true that IC50 reported for COc1cccc(Oc2c(NS(=O)(=O)c3ccc(C(C)(C)C)cc3)ncnc2OCCOc2nccc3ccccc23)c1 is less than 0.9 nM? Not fulfilled

Is it true that IC50 reported for COc1cnc(OCCOc2ncnc(NS(=O)(=O)c3ccc(C(C)(C)C)cc3)c2Oc2cccc(OC)c2)nc1 is less than 0.9 nM? Fulfilled

Is it true that IC50 reported for COc1cccc(Oc2c(NS(=O)(=O)c3ccc(C(C)(C)C)cc3)ncnc2OCCOc2ccccc2)c1 is less than 0.9 nM? Not fulfilled

Is it true that IC50 reported for COc1cccc(Oc2c(NS(=O)(=O)c3ccc(C(C)(C)C)cc3)ncnc2OCCOc2ccccn2)c1 is less than 0.9 nM? Not fulfilled

Is it true that IC50 reported for COc1cccc(Oc2c(NS(=O)(=O)c3ccc(C(C)(C)C)cc3)ncnc2OCCOc2nccc(OC)n2)c1 is less than 0.9 nM? Not fulfilled

----------
system_under_test: Endothelin receptor type B (Homo sapiens)
Sequence (P24530 whole entry): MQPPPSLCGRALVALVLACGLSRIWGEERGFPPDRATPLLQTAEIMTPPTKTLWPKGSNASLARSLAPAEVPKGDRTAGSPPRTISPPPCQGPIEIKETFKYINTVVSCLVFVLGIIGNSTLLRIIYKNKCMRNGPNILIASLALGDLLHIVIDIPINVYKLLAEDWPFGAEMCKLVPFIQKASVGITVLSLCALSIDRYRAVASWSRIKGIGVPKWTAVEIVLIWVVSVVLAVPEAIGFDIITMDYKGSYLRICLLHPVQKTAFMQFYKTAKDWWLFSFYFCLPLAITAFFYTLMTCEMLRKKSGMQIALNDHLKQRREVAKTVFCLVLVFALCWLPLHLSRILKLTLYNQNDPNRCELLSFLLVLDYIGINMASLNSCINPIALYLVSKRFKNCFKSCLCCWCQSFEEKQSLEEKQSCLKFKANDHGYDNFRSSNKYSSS
experiment_summary: Ability to inhibit specific binding of [125I]- -ET-1 to human GH cells which express endothelin B receptor
Assay type: cell-based
observation_type: IC50

Provide measured IC50 value, entry: COc1cccc(Oc2c(NS(=O)(=O)c3ccc(C(C)(C)C)cc3)ncnc2OCCO)c1 1100 nM

----------
system_under_test: Endothelin-1 receptor (Sus scrofa)
experiment_summary: In vitro inhibition of [125I]ET1 binding to Endothelin A receptor in porcine aortic membrane from endothelial cells
condition_set: in the assay text read “with endothelium removed” for “from endothelial cells”
observation_type: log10(IC50) (log10 of the value in nM)
On a log10 scale: recorded IC50, unit nM.

// solved cases for log10(IC50) follow
Provide measured log10(IC50) value, entry: Cc1ccc(-c2c(NS(=O)(=O)c3ccc(Br)cc3)ncnc2OCCOc2ncc(Br)cn2)cc1 0.45

Provide measured log10(IC50) value, entry: CSc1cnc(OCCOc2ncnc(NS(=O)(=O)c3ccc(C(C)(C)C)cc3)c2-c2ccc(C)s2)nc1 -0.80

Provide measured log10(IC50) value, entry: COc1ccc(S(=O)(=O)Nc2ncnc(OCCOc3ncc(Br)cn3)c2-c2ccc(C)cc2)cc1 -0.12

Provide measured log10(IC50) value, entry: COCCOc1ncnc(NS(=O)(=O)c2ccc(C(C)(C)C)cc2)c1Oc1cccc(OC)c1 1.96

Provide measured log10(IC50) value, entry: COc1cccc(Oc2c(NCCOc3ncccn3)ncnc2NS(=O)(=O)c2ccc(C(C)(C)C)cc2)c1 0.79

# context switch: different compound, same log10(IC50)
Provide measured log10(IC50) value, entry: COc1cccc(Oc2c(NS(=O)(=O)c3ccc(C(C)(C)C)cc3)ncnc2OCCOc2cnccn2)c1 1.39

----------
system_under_test: Endothelin-1 receptor (Sus scrofa)
experiment_summary: In vitro inhibition of [125I]ET1 binding to Endothelin A receptor in porcine aortic membrane from endothelial cells
condition_set: in the assay text read “with endothelium removed” for “from endothelial cells”
observation_type: pIC50
pIC50 here is simply -log10 of the concentration when that concentration is written in mol/L.

Provide measured pIC50 value, entry: CSc1cnc(OCCOc2ncnc(NS(=O)(=O)c3ccc(C(C)(C)C)cc3)c2-c2cccs2)nc1 9.05

Provide measured pIC50 value, entry: CSc1cnc(OCCOc2ncnc(NS(=O)(=O)c3ccc(C(C)(C)C)cc3)c2-c2ccncc2)nc1 8.00

Provide measured pIC50 value, entry: COc1cccc(Oc2c(NS(=O)(=O)c3ccc(C(C)(C)C)cc3)ncnc2OCCOc2cnc3ccccc3n2)c1 7.34

Provide measured pIC50 value, entry: COc1cccc(Oc2c(NS(=O)(=O)c3ccc(C(C)(C)C)cc3)ncnc2OCCOc2ccncn2)c1 8.92

Provide measured pIC50 value, entry: COc1cccc(Oc2c(NS(=O)(=O)c3ccc(C(C)(C)C)cc3)ncnc2OCCOc2ncc(Br)cn2)c1 10.29

----------
system_under_test: Endothelin-1 receptor (Sus scrofa)
experiment_summary: In vitro inhibition of [125I]ET1 binding to Endothelin A receptor in porcine aortic membrane from endothelial cells
condition_set: in the assay text read “with endothelium removed” for “from endothelial cells”
observation_type: IC50 (nM)
// return numeric value only (unit: nM, not printed)

Provide measured IC50 value, entry: COc1ccccc1Oc1c(NS(=O)(=O)c2ccc(C(C)(C)C)cc2)ncnc1OCCOc1ncc(SC)cn1 0.37

# context switch: different molecule, same IC50
Provide measured IC50 value, entry: Cc1ccc(-c2c(NS(=O)(=O)c3ccc4ccccc4c3)ncnc2OCCOc2ncc(Br)cn2)cc1 1
